Tested on: human peripheral blood mononuclear cells (PBMCs)
method_description: IFN-α secretion by human PBMC (ELISA)
Format: cell-based
details: human PBMCs, 24 hours incubation, ELISA; limit of maximal/minimal detection 13160/102 pg/ml
Quick list: IFN-α Max per entry.
endpoint_label: IFN-α Max (pg/mL)

substance	endpoint_label	units	reported_measurement
C69-11: 5′-TTTTCG AACGTTCGAACGTTCGAAATT-3′ (SEQ ID NO: 24), phosphorothioate backbone (DNA TTTTCGAACGTTCGAACGTTCGAAATT; DNA, all phosphorothioate, methylation of C not given here)	IFN-α Max	pg/mL	1239
C69-02: 5′-TCG AACGTTCGAACGTTCGAA CGTT-3′ (SEQ ID NO: 5), phosphorothioate backbone (DNA TCGAACGTTCGAACGTTCGAACGTT; DNA, all phosphorothioate, methylation of C not given here)	IFN-α Max	pg/mL	6008
C69-10: 5′-TTCG AACGTTCGAACGTTCGAAT-3′ (SEQ ID NO: 23), phosphorothioate backbone (DNA TTCGAACGTTCGAACGTTCGAAT; DNA, all phosphorothioate, methylation of C not given here)	IFN-α Max	pg/mL	3820
C69-01: 5′-TCG AACGTTCGAACGTTCGAA CGTTCGAAT-3′ (SEQ ID NO: 4), CpG-C 2′-deoxyribopolynucleotide, phosphorothioate backbone (DNA TCGAACGTTCGAACGTTCGAACGTTCGAAT; DNA, all phosphorothioate, methylation of C not given here)	IFN-α Max	pg/mL	6030
